tested on: PGE2-contraction in the isolated guinea pig ileum; test: Inhibition of the PGE2-contraction in the isolated guinea pig ileum; settings: Cavia porcellus, agonist PGE2 200 ng/ml, at 10 μg/ml, read-out: inhibition in percent for the corresponding dosis
Experimental readout: inhibition at 10 µg/mL (%)
Report only the number, with the unit % understood.

Example entries begin here.
INSERT INTO measurements (compound, subject_of_test, experimental_readout, unit_text, result_number) VALUES
  ('CCCCCC(O)/C=C/C1CCC(O)C1(C/C=C/COCC(=O)O)C(=O)OCC (stereo not drawn) [Example 37]', 'PGE2-contraction in the isolated guinea pig ileum', 'inhibition at 10 µg/mL', '%', 65),
  ('CCCCCC(/C=C/C1CCC(=O)C1(Cc1ccccc1CCCC(=O)OCC)C(=O)OCC)OC1CCCCO1 (stereo not drawn) [Example 44]', 'PGE2-contraction in the isolated guinea pig ileum', 'inhibition at 10 µg/mL', '%', 40),
  ('CCCCCC(O)/C=C/C1CCC(O)C1(Cc1ccccc1CCCC(=O)O)C(=O)OCC (stereo not drawn) [Example 46]', 'PGE2-contraction in the isolated guinea pig ileum', 'inhibition at 10 µg/mL', '%', 80),
  ('CCCCCC(/C=C/C1CCC(O)C1(CCCC(C)CCC(=O)O)C(=O)OCC)OC1CCCCO1 (stereo not drawn) [Example 8]', 'PGE2-contraction in the isolated guinea pig ileum', 'inhibition at 10 µg/mL', '%', 80),
  ('CCCCCC(/C=C/C1CCC(=O)C1(CCCCC(C)CC(=O)OCC)C(=O)OCC)OC1CCCCO1 (stereo not drawn) [Example 10]', 'PGE2-contraction in the isolated guinea pig ileum', 'inhibition at 10 µg/mL', '%', 10);

Now for the compound whose inhibition at 10 µg/mL we want.
Requested field: inhibition at 10 µg/mL. Item: CCCCCC(/C=C/C1CCC(O)C1(CCCCC(C)CC(=O)O)C(=O)OCC)OC1CCCCO1 (stereo not drawn) [Example 11]
80
